- Measured On: COX-2 (Homo sapiens, UniProt P35354)
- Sequence (P35354 18-604): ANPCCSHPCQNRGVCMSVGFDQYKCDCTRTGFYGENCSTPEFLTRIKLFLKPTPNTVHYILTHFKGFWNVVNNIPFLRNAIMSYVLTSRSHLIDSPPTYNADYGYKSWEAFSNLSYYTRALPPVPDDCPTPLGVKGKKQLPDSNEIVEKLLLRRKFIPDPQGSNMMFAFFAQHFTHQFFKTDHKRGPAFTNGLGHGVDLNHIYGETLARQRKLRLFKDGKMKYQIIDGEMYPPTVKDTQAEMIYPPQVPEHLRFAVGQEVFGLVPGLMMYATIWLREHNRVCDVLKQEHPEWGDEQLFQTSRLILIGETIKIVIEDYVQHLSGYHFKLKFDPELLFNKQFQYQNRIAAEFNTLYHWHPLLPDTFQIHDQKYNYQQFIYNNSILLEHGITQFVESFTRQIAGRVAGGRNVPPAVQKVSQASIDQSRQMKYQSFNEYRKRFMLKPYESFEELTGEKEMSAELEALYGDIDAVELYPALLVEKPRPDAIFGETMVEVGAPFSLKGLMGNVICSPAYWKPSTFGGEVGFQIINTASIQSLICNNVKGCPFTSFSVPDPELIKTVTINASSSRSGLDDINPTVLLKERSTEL
Assay Metric: pIC50
// pIC50 is dimensionless: -log10 of concentration (M)

// compound CSc1ccc(/C=C2/C(C)=C(CC(=O)NCCN(C)C)c3cc(F)ccc32)cc1 , assay COX-2 (Homo sapiens, UniProt P35354), pIC50 value: 3.78

---

- System: human HT29 colon tumor cell line
- Assay Info: Growth inhibitory activity / in vitro cytotoxicity against human HT29 colon tumor cells
- Condition Notes: read-out: IC50, growth inhibitory activity; human HT29 colon tumor cell line; Table B lower part
Readings of IC50 for the listed molecules
Could you give me the number in µM? Just the number is fine.

Entry CNCCN(C)C(=O)CC1=C(C)/C(=C/c2ccc(SC)cc2)c2ccc(F)cc21 [SRI 21596] , IC50 reported as 1.62

Quick note, IC50 for CC1=C(CC(=O)Nc2ccc(N(C)C)cc2)c2cc(F)ccc2/C1=C\c1ccc([S+](C)[O-])cc1 (stereo not drawn) [SRI 21590] landed at 230

IC50 reported for this molecule CSc1ccc(/C=C2/C(C)=C(CC(=O)NCc3ccc(N(C)C)cc3)c3cc(F)ccc32)cc1 [SRI 21540] : 3.22

// sample CC1=C(CC(=O)N2CCN(C)CC2)c2cc(F)ccc2C1=Cc1ccc([S+](C)[O-])cc1 (stereo not drawn) [SRI 21387] , its IC50 was 71

// recorded IC50 for CC1=C(CC(=O)NCCN(C)C)c2cc(F)ccc2/C1=C\c1ccc(S(C)(=O)=O)cc1 [SRI 21487] : 10
